- Test system: Staphylococcus aureus
- protocolDetails: Bactericidal activity against methicillin-resistant Staphylococcus aureus subsp. aureus Rosenbach 1884
- Assay type: functional
assayEndpoint: MBC

{"columns": ["compound", "assayEndpoint", "experimentalResult"],
 "data": [
  ["O=C(O)c1cn(C2CC2)c2cc(F)c(F)cc2c1=O", "MBC", "> 512 mg/L"],
  ["CO[C@@]12[C@H](COC(N)=O)C3=C(C(=O)C(C)=C(N)C3=O)N1C[C@@H]1N[C@@H]12 [MITOMYCIN]", "MBC", "4 mg/L"],
  ["CC1(C)[C@H](C(=O)O[C@H](C#N)c2cccc(Oc3ccccc3)c2)[C@@H]1/C=C(\\Cl)C(F)(F)F [GAMMA-CYHALOTHRIN]", "MBC", "> 512 mg/L"],
  ["Cc1nccn1-c1cc2c(cc1F)c(=O)c(C(=O)O)cn2C1CC1", "MBC", "> 512 mg/L"],
  ["COc1cc2c(cc1OC)CN(c1cc3c(cc1F)c(=O)c(C(=O)O)cn3C1CC1)CC2", "MBC", "128 mg/L"]
]}

====

- Tested on: Staphylococcus aureus
- protocolDetails: Bactericidal activity against methicillin-resistant Staphylococcus aureus subsp. aureus Rosenbach 1884
- Assay type: functional
Entries and their MBC values follow.

{"columns": ["smilesString", "reportedRelation", "MBC, µg/mL"],
 "data": [
  ["CN(Cc1cccc2ccccc12)c1cc2c(cc1F)c(=O)c(C(=O)O)cn2C1CC1", "=", 128],
  ["Nc1nnc(-c2cccc(Cl)c2Cl)c(N)n1", ">", 512],
  ["O=C(O)c1cn(C2CC2)c2cc(Cl)c(F)cc2c1=O", "=", 512],
  ["O=C(O)c1cn(C2CC2)c2cc(N3CCNCC3)c(F)cc2c1=O", "=", 256]
]}
